PROPERTY LABEL: melting point

Prompt: Read the entry `O=C(Nc1ccc(OCCCOc2c(Cl)cc(OCC=C(Cl)Cl)cc2Cl)cc1)c1ccccc1C(F)(F)F` and write its reported melting point.
Response: 118 to 121 °C

Prompt: Read the entry `O=C(Nc1ccc(OCCCOc2c(Cl)cc(OCC=C(Cl)Cl)cc2Cl)cc1)c1c(F)cccc1F` and write its reported melting point.
Response: 95 to 97 °C

Prompt: Read the entry `O=C(Nc1ccc(OCCCOc2c(Cl)cc(OCC=C(Cl)Cl)cc2Cl)cc1)c1ccccc1Cl` and write its reported melting point.
Response: 107 to 111 °C

Prompt: Read the entry `O=C(Nc1ccc(OCCCOc2c(Cl)cc(OCC=C(Cl)Cl)cc2Cl)cc1)c1cccs1` and write its reported melting point.
Response: 83 to 90 °C

Prompt: Read the entry `O=C(Nc1ccc(OCCCOc2c(Cl)cc(OCC=C(Cl)Cl)cc2Cl)cc1)c1ccco1` and write its reported melting point.
Response: 108 to 113 °C

Prompt: Read the entry `O=C(Nc1ccc(OCCCOc2c(Cl)cc(OCC=C(Cl)Cl)cc2Cl)cc1)c1ccccc1Br` and write its reported melting point.
Response: 112 to 114 °C

Prompt: Read the entry `Cc1ccccc1C(=O)Nc1ccc(OCCCOc2c(Cl)cc(OCC=C(Cl)Cl)cc2Cl)cc1` and write its reported melting point.
Response: 89 to 92 °C

Prompt: Read the entry `O=C(Nc1ccc(OCCCOc2c(Cl)cc(OCC=C(Cl)Cl)cc2Cl)cc1)c1ccc(F)cc1F` and write its reported melting point.
Response: 89 to 91 °C
